- target.under.test: Mitogen-activated protein kinase kinase kinase 5 (Homo sapiens)
- Sequence (Q99683 whole entry): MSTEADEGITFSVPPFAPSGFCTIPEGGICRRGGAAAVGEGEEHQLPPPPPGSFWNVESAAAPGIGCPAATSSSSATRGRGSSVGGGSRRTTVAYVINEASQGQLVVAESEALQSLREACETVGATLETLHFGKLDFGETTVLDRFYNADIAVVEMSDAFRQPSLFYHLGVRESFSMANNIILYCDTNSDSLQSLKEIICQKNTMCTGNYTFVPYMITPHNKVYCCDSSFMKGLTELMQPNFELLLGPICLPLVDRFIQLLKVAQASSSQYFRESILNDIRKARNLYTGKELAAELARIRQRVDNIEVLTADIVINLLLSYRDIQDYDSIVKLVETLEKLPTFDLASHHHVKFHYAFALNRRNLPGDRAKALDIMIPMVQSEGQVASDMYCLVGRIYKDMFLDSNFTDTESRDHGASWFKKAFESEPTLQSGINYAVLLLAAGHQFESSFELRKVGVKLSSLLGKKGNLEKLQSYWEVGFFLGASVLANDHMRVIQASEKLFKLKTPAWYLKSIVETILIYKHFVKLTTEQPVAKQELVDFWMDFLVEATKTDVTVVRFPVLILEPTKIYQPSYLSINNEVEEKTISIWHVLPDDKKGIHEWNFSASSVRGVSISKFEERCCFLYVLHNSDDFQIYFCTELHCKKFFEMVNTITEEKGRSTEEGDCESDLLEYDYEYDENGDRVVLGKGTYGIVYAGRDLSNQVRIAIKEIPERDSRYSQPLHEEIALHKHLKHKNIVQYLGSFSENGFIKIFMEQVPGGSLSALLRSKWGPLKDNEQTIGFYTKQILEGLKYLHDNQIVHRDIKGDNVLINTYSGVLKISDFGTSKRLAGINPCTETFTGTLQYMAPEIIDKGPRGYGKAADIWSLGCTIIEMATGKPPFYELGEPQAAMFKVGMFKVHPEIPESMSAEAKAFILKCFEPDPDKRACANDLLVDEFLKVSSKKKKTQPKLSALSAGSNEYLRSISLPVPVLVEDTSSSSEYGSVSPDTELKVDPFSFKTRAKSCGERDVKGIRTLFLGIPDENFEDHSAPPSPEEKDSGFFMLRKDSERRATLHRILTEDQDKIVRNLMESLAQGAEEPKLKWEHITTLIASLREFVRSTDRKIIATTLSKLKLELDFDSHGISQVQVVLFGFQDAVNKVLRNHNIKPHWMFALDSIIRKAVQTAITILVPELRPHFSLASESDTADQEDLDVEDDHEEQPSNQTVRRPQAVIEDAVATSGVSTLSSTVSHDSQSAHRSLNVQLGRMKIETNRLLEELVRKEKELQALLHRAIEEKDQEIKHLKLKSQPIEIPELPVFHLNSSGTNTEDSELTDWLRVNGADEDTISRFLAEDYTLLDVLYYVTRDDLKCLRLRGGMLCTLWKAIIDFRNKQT
- protocol.text: Inhibition of recombinant ASK1 catalytic subunit (unknown origin) using MBP substrate and gamma-labeled 32P ATP incubated for 20 mins by liquid scintillation counting method
pIC50: −log10 of the molar value.
observed.property: pIC50

The following molecules have reported results that may help.
INSERT INTO assay_data (molecule, observed_property, observed_value) VALUES
  ('CCCCOc1ccc(C2C(C(=O)c3ccc4c(c3)OCCO4)=C(O)C(=O)N2c2nc3ccc(Cl)cc3s2)cc1OCC (centres undefined)', 'pIC50', 5.44),
  ('O=C(C1=C(O)C(=O)N(c2nc3ccc(F)cc3s2)C1c1cccc(F)c1)c1ccco1 (centres undefined)', 'pIC50', 4.37);

(I) Cc1cc(C)c2nc(N3C(=O)C(O)=C(C(=O)c4ccc(Cl)cc4)C3c3ccc(C(C)C)cc3)sc2c1 (centres undefined)
(II) Cc1ccc2nc(N3C(=O)C(O)=C(C(=O)c4ccco4)C3c3ccc(Br)cc3)sc2c1 (centres undefined)
Q: I would appreciate it if you could say which entry, I or II , has the lower pIC50 value. Which one? Tell me its label.
Ans: II

* * *

- target.under.test: Mitogen-activated protein kinase 10 (Homo sapiens)
- protocol.text: Inhibition of JNK3 (unknown origin) assessed as residual enzyme activity at 10 uM using JNK3tide substrate
observed.property: Activity (%)

INSERT INTO measurements (compound, observed_property, observed_value) VALUES
  ('CCOc1ccc2nc(N3C(=O)C(O)=C(C(=O)c4ccc(C)cc4)C3c3ccc(C(C)(C)C)cc3)sc2c1 (stereo not drawn)', 'Activity', 100),
  ('CC(C)(C)c1ccc(C2C(C(=O)c3ccc4c(c3)OCCO4)=C(O)C(=O)N2c2nc3ccc(Cl)cc3s2)cc1 (stereo not drawn)', 'Activity', 100),
  ('Cc1ccc(C(=O)C2=C(O)C(=O)N(c3nc4ccc(F)cc4s3)C2c2ccc(C(C)(C)C)cc2)o1 (stereo not drawn)', 'Activity', 100),
  ('CCCCOc1ccc(C2C(C(=O)c3ccc4c(c3)OCCO4)=C(O)C(=O)N2c2nc3ccc(Cl)cc3s2)cc1 (stereo not drawn)', 'Activity', 100),
  ('CCCOc1ccc(C2C(C(=O)c3ccc4c(c3)OCCO4)=C(O)C(=O)N2c2nc3ccc(C)cc3s2)cc1 (stereo not drawn)', 'Activity', 80),
  ('CCOc1ccc2nc(N3C(=O)C(O)=C(C(=O)c4cccs4)C3c3ccc(C)cc3)sc2c1 (stereo not drawn)', 'Activity', 100),
  ('CCOc1ccc2nc(N3C(=O)C(O)=C(C(=O)c4ccccc4)C3c3ccc(Cl)cc3)sc2c1 (stereo not drawn)', 'Activity', 100),
  ('O=C(C1=C(O)C(=O)N(c2nc3ccc(F)cc3s2)C1c1cccc(Cl)c1)c1cccs1 (stereo not drawn)', 'Activity', 89.9);

* * *

- target.under.test: Mitogen-activated protein kinase kinase kinase 5 (Homo sapiens, UniProt Q99683)
- protocol.text: Inhibition of recombinant ASK1 catalytic subunit (unknown origin) using MBP substrate and gamma-labeled 32P ATP incubated for 20 mins by liquid scintillation counting method
observed.property: IC50 (µM)

INSERT INTO assay_data (compound, observed_property, observed_value) VALUES
  ('CCCCCOc1ccc(C2C(C(=O)c3ccc4c(c3)OCCO4)=C(O)C(=O)N2c2nc3ccc(C)cc3s2)cc1 (centres undefined)', 'IC50', 5.2),
  ('CCCCOc1ccc(C2C(C(=O)c3ccc4c(c3)OCCO4)=C(O)C(=O)N2c2nc3ccc(Cl)cc3s2)cc1 (centres undefined)', 'IC50', 5.2),
  ('O=C(C1=C(O)C(=O)N(c2nc3ccc(F)cc3s2)C1c1cccc(Br)c1)c1ccco1 (centres undefined)', 'IC50', 29.5),
  ('O=C(C1=C(O)C(=O)N(c2nc3ccc(F)cc3s2)C1c1cccc(Cl)c1)c1cccs1 (centres undefined)', 'IC50', 4.5),
  ('Cc1ccc(C(=O)C2=C(O)C(=O)N(c3nc4ccc(C)cc4s3)C2c2ccc(C(C)(C)C)cc2)cc1 (centres undefined)', 'IC50', 4.4),
  ('CCOc1ccc(C2C(C(=O)c3cccs3)=C(O)C(=O)N2c2nc3ccc(C)cc3s2)cc1 (centres undefined)', 'IC50', 9.1),
  ('O=C(C1=C(O)C(=O)N(c2nc3ccc(F)cc3s2)C1c1ccc(Br)cc1)c1ccco1 (centres undefined)', 'IC50', 28.2);

(A) CC(C)(C)c1ccc(C2C(C(=O)c3ccc4c(c3)OCCO4)=C(O)C(=O)N2c2nc3ccc(Cl)cc3s2)cc1 (centres undefined)
(B) CCOc1ccc2nc(N3C(=O)C(O)=C(C(=O)c4cccs4)C3c3ccc(C)cc3)sc2c1 (centres undefined)
Q: Short answer wanted: higher IC50, A or B ? Which one? Tell me its label.
Ans: B
(B: 4.4 µM, A: 2.5 µM)

* * *

- target.under.test: Mitogen-activated protein kinase 10 (Homo sapiens) (UniProt P53779)
- Sequence (P53779 whole entry): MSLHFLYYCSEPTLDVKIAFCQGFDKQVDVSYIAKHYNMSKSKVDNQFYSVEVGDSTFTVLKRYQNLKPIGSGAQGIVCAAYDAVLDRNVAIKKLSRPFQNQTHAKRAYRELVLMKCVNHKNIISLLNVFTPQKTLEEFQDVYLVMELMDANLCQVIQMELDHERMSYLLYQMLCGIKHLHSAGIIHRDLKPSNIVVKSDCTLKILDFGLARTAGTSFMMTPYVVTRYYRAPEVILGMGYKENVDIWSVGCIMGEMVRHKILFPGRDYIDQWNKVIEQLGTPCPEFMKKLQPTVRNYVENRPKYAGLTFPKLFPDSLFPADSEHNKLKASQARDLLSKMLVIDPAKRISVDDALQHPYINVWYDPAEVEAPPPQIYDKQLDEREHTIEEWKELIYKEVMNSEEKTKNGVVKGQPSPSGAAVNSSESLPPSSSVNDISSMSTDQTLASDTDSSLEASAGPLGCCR
- protocol.text: Inhibition of JNK3 (unknown origin) assessed as residual enzyme activity at 10 uM using JNK3tide substrate
observed.property: Activity (%)

INSERT INTO results (molecule, measurement_units, observed_value) VALUES
  ('CCCCCOc1ccc(C2C(C(=O)c3ccc4c(c3)OCCO4)=C(O)C(=O)N2c2nc3ccc(C)cc3s2)cc1 (stereo unspecified)', '%', 92.5),
  ('CCCCOc1ccc(C2C(C(=O)c3ccc4c(c3)OCCO4)=C(O)C(=O)N2c2nc3ccc(C)cc3s2)cc1 (stereo unspecified)', '%', 100),
  ('CCCCOc1ccc(C2C(C(=O)c3ccc4c(c3)OCCO4)=C(O)C(=O)N2c2nc3ccc(Cl)cc3s2)cc1OCC (stereo unspecified)', '%', 100),
  ('CC(C)CCOc1cccc(C2C(C(=O)c3ccc4c(c3)CC(C)O4)=C(O)C(=O)N2c2nc3ccc(F)cc3s2)c1 (stereo unspecified)', '%', 100),
  ('CCCCCOc1ccc(C2C(C(=O)c3ccc4c(c3)CC(C)O4)=C(O)C(=O)N2c2nc3ccc(F)cc3s2)cc1 (stereo unspecified)', '%', 100),
  ('COc1ccc2nc(N3C(=O)C(O)=C(C(=O)c4ccco4)C3c3ccc(Cl)cc3)sc2c1 (stereo unspecified)', '%', 96.8);
